subject.of.test: Igf2bp3 (Homo sapiens)
Sequence (O00425 whole entry, species assumed): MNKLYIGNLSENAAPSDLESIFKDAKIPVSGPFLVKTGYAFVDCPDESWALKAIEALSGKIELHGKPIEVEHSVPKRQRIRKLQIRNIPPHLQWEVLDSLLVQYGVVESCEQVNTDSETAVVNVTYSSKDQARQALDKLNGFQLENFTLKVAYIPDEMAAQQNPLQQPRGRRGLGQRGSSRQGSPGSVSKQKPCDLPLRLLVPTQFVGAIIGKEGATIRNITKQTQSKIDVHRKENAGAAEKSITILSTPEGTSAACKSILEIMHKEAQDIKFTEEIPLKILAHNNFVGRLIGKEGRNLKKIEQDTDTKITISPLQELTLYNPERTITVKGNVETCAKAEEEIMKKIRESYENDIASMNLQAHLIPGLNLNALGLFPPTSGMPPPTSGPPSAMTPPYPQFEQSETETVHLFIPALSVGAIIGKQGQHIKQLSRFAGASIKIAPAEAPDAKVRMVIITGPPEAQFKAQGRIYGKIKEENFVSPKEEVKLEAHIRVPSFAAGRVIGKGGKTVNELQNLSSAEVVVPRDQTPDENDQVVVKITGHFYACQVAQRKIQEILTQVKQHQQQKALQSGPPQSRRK
quantity: Kd (µM)
Give bare numbers, in µM.

Item: O=C(c1ccc(Cn2cnnn2)cc1)N1CCCC(Nc2ccc3c(c2)OCO3)C1 (stereo not shown) | System: Igf2bp3 (Homo sapiens) | Kd: 52

###

subject.of.test: Igf2bp2 (Homo sapiens, UniProt Q9Y6M1)
Sequence (Q9Y6M1 whole entry, species assumed): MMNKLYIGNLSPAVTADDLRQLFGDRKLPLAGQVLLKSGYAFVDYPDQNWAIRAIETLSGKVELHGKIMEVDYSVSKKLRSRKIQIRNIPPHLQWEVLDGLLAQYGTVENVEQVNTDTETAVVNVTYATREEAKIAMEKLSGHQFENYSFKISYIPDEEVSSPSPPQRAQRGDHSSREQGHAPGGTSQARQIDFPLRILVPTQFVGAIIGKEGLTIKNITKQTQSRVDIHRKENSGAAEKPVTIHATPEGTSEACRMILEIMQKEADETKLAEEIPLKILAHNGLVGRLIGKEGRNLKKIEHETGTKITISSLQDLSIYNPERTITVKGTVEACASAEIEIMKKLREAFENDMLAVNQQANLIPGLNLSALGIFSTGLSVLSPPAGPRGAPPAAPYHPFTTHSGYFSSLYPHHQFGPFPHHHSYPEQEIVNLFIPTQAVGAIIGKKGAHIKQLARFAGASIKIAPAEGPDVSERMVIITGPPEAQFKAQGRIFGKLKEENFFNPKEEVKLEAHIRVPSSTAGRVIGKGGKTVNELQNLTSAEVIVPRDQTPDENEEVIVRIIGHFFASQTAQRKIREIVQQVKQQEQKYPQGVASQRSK
quantity: Kd

Recorded Kd (compound O=C(c1ccc(Cn2cnnn2)cc1)N1CCCC(Nc2ccc3c(c2)OCO3)C1 (stereo not shown) [compound 7773] ): > 150 µM

###

subject.of.test: Igf2bp1 (Homo sapiens, UniProt Q9NZI8)
Construct: Recombinant full-length Igf2bp1 protein was labelled with RED-tris-NTA dye
Sequence (Q9NZI8 whole entry): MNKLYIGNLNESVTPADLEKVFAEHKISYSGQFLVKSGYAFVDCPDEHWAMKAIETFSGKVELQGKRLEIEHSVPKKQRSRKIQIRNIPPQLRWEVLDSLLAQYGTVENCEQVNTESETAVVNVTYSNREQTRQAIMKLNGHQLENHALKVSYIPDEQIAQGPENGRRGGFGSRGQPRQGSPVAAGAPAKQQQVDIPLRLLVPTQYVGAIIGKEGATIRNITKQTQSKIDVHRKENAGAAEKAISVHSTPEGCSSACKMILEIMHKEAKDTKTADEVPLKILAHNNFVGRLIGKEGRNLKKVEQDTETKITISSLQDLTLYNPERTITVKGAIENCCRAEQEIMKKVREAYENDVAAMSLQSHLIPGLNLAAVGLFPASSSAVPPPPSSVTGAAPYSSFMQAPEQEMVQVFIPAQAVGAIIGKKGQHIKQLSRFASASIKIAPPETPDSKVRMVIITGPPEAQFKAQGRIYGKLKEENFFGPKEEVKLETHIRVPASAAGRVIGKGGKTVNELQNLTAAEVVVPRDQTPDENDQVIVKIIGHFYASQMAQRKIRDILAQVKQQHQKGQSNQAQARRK
assay.overview: Microscale thermophoresis (MST), full-length Igf2bp1
conditions: full-length protein, read-out: KD of compound binding to Igf2bp1
quantity: Kd (µM)
Answers are plain numbers, in µM.

Recorded Kd (compound O=C(c1ccc(Cn2cnnn2)cc1)N1CCCC(Nc2ccc3c(c2)OCO3)C1 (stereo not shown) ): 17

###

subject.of.test: Igf2bp1 (Homo sapiens, UniProt Q9NZI8)
Construct: Recombinant full-length Igf2bp1 protein was labelled with RED-tris-NTA dye
assay.overview: Fluorescence polarization (FP) assay of Igf2bp1 binding to fluorescent Kras 6 RNA
conditions: FP dose response; read-out: IC50, inhibition of Igf2bp1 binding to Kras 6 RNA
Text: For the small-molecule screen, compounds were obtained from the collection maintained at the Grand Israel National Center for Personalized Medicine, consisting of molecules purchased from commercial vendors. […] The plates were spun down and read in a BMG Pherastar FS (Germany) plate reader, in FP mode with a 485/520/520 polarization filter, calibrated to 35 mP for free fluorescein with similar total intensity as experimental samples. […]
pIC50: −log10 of the molar value.
quantity: pIC50

Recorded pIC50 (molecule O=C(c1cccc(-n2cnnn2)c1)N1CCCC(Nc2ccc3c(c2)OCO3)C1 (stereo not shown) ): ~4.05
